target: T1, SmN C-terminal tail, residues 167-240 (complete proline-rich region), wild type (human, UniProt P63162 167-240); assay: ITC; purified OCRE mutants (2 mM) titrated to wild type SmN (29.5 μM); ITC200, 24°C, 20 mM sodium phosphate pH 6.5, 50 mM NaCl; duplicates; settings: both partners purified
T1 construct: The ITC methods print 168-240 for this construct; also called SmN_167-240 WT; source: E. coli BL21, purified (Ni-NTA, TEV cleavage, gel filtration); not shown: His6, N-terminal, cleaved; GST, N-terminal, cleaved
For each of the binders below, state its Kd.
Field format: number, assumed µM, no unit text.

Q. What measured Kd goes with RBM5 OCRE domain (451-511) Y454A/D458K (domain or fragment, human, tripeptide left by the TEV cleavage; RBM5, human, OCRE domain, residues 451-511; source: E. coli BL21, purified (Ni-NTA, TEV cleavage, gel filtration); not shown: His6, N-terminal, cleaved) GAMGTKAAVPKTSTYQYDESSGYYYDPTTGLYYDPNSQYYYNSLTQQYLYWDGEKETYVPAAES ?
A. 106

Q. What measured Kd goes with RBM5 OCRE domain (451-511) Y495F (domain or fragment, human, tripeptide left by the TEV cleavage; RBM5, human, OCRE domain, residues 451-511; source: E. coli BL21, purified (Ni-NTA, TEV cleavage, gel filtration); not shown: His6, N-terminal, cleaved) GAMGTKYAVPDTSTYQYDESSGYYYDPTTGLYYDPNSQYYYNSLTQQFLYWDGEKETYVPAAES ?
A. 87

Q. What measured Kd goes with RBM5 OCRE domain (451-511) E501K (domain or fragment, human, tripeptide left by the TEV cleavage; RBM5, human, OCRE domain, residues 451-511; source: E. coli BL21, purified (Ni-NTA, TEV cleavage, gel filtration); not shown: His6, N-terminal, cleaved) GAMGTKYAVPDTSTYQYDESSGYYYDPTTGLYYDPNSQYYYNSLTQQYLYWDGKKETYVPAAES ?
A. 48

Q. What measured Kd goes with RBM5 OCRE domain (451-511) Y495W (domain or fragment, human, tripeptide left by the TEV cleavage; RBM5, human, OCRE domain, residues 451-511; source: E. coli BL21, purified (Ni-NTA, TEV cleavage, gel filtration); not shown: His6, N-terminal, cleaved) GAMGTKYAVPDTSTYQYDESSGYYYDPTTGLYYDPNSQYYYNSLTQQWLYWDGEKETYVPAAES ?
A. 35

Where do these numbers come from? They come from paper PMC5127646.
